- STUDY_SYSTEM: aggregated (oligomeric) P301S 2N4R tau, pHrodo-labelled (human, UniProt P10636 1-758, pHrodo Red maleimide label); also: test concentration or dose not given here
- Sequence (P10636 other isoform, or with tags, fused parts or gaps P301S P301S): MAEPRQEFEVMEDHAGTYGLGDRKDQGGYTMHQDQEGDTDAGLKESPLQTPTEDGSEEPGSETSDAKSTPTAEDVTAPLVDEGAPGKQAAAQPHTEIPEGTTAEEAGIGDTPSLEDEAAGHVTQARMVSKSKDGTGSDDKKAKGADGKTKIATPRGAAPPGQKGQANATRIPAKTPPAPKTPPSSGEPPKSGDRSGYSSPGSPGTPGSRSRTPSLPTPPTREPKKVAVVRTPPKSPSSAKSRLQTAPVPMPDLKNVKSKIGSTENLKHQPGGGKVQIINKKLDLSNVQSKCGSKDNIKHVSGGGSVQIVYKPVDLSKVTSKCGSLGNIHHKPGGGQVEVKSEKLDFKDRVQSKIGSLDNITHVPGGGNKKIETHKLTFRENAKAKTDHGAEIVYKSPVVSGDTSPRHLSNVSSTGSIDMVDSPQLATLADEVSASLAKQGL
- ASSAY_INFO: cell-based or functional assay
RECORDED_ENDPOINT: inhibition of aggregated tau uptake into human iPSC-derived astrocytes (%)
Express your answer in %, writing the number without its unit.

Lookup: Param item = #44 VH4VK3 humanised hIgG1 (antibody, V domains shown, also called VH4Vκ3; Clone VH4VK3 (D)) VH: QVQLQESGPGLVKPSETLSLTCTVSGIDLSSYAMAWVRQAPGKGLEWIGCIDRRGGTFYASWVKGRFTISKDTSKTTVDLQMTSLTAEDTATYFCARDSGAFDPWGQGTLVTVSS VL: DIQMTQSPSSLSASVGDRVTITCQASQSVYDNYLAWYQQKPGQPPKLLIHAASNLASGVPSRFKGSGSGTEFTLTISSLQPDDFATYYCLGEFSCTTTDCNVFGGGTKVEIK ; retrieve measured inhibition of aggregated tau uptake into human iPSC-derived astrocytes.
Found: 49.9

Lookup: Param item = #44 VH4VK2 humanised hIgG1 (antibody, V domains shown, also called VH4Vκ2; Clone VH4VK2 (C)) VH: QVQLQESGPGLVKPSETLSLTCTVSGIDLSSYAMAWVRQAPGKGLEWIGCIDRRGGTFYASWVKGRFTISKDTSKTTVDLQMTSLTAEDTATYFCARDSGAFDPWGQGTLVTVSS VL: QIVMTQSPSSLSASVGDRVTITCQASQSVYDNYLAWYQQKPGQPPKLLIHAASNLASGVPSRFKGSGSGTEFTLTISSLQPDDFATYYCLGEFSCTTTDCNVFGGGTKVEIK ; retrieve measured inhibition of aggregated tau uptake into human iPSC-derived astrocytes.
Found: 48

Lookup: Param item = #44 VH3VK3 humanised hIgG1 (antibody, V domains shown, also called VH3Vκ3; Clone VH3VK3 (A)) VH: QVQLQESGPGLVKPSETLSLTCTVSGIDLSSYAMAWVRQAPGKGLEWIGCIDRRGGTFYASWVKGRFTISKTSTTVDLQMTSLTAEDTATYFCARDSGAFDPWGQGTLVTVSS VL: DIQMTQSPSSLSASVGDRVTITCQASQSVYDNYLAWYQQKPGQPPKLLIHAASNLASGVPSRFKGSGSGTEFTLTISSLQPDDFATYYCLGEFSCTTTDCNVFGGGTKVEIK ; retrieve measured inhibition of aggregated tau uptake into human iPSC-derived astrocytes.
Found: 46.4
